Data provenance is the supplement of paper PMC9112550.

- Tested on: Escherichia coli TOP10;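 also: peptides expressed intracellularly from a pBAD plasmid library in pooled LB shake-flask culture, induced with 0.3% L-arabinose, DNA abundance read by NGS, three biological replicates, DESeq2 with apeglm shrinkage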
- Experiment: shrunken log2 fold change of peptide-encoding DNA abundance (4.5 h post-induction vs induction); higher = less antimicrobial activity (less host growth inhibition)
- Test context: time post-induction: 4.5 h; library: site-saturation at positions 5, 18, 19, 20
Where shrunken log2 fold change equals or exceeds 0.05, the correct label is true (1); where it does not, the label is false (0).

[
  {
    "Chain sequence": "RRIRIRPPRLPRPRPRPLGDPRP",
    "Assigned class": "false (0)"
  },
  {
    "Chain sequence": "RRIRVRPPRLPRPRPRPAHDPRP",
    "Assigned class": "true (1)"
  },
  {
    "Chain sequence": "RRIRRRPPRLPRPRPRPHMEPRP",
    "Assigned class": "true (1)"
  },
  {
    "Chain sequence": "RRIRDRPPRLPRPRPRPTAGPRP",
    "Assigned class": "true (1)"
  },
  {
    "Chain sequence": "RRIRIRPPRLPRPRPRPEPYPRP",
    "Assigned class": "false (0)"
  },
  {
    "Chain sequence": "RRIRNRPPRLPRPRPRPVIMPRP",
    "Assigned class": "true (1)"
  },
  {
    "Chain sequence": "RRIRIRPPRLPRPRPRPMTIPRP",
    "Assigned class": "false (0)"
  },
  {
    "Chain sequence": "RRIRMRPPRLPRPRPRPNHMPRP",
    "Assigned class": "false (0)"
  },
  {
    "Chain sequence": "RRIRLRPPRLPRPRPRPDVVPRP",
    "Assigned class": "false (0)"
  },
  {
    "Chain sequence": "RRIRARPPRLPRPRPRPDHTPRP",
    "Assigned class": "false (0)"
  },
  {
    "Chain sequence": "RRIRYRPPRLPRPRPRPTYDPRP",
    "Assigned class": "false (0)"
  },
  {
    "Chain sequence": "RRIRHRPPRLPRPRPRPTESPRP",
    "Assigned class": "false (0)"
  },
  {
    "Chain sequence": "RRIRNRPPRLPRPRPRPWFGPRP",
    "Assigned class": "false (0)"
  }
]
